Assay: isobaric coefficient of expansion
Details: 318.15 K; 55000 kPa; Liquid; DSC with Pressure Shift
Property: isobaric coefficient of expansion

Input: Please report the recorded isobaric coefficient of expansion for CCCCCCCCCCO .
Output: 0.000676 1/K

---
Input: Please report the recorded isobaric coefficient of expansion for CCCCCN .
Output: 0.000898 1/K

Input: Please report the recorded isobaric coefficient of expansion for CCC(O)CC .
Output: 0.000862 1/K

Input: Please report the recorded isobaric coefficient of expansion for CCCCCCCO .
Output: 0.000703 1/K

Input: Please report the recorded isobaric coefficient of expansion for CCCCCCCCCO .
Output: 0.000678 1/K

Input: Please report the recorded isobaric coefficient of expansion for CCCO .
Output: 0.000806 1/K

Input: Please report the recorded isobaric coefficient of expansion for CCO .
Output: 0.000863 1/K

Input: Please report the recorded isobaric coefficient of expansion for CCCCCCCCO .
Output: 0.000688 1/K

====

Test: isobaric coefficient of expansion
Conditions: 318.15 K; 20000 kPa; Liquid; DSC with Pressure Shift
Property: isobaric coefficient of expansion

Past entries and their recorded results:
Input: Please report the recorded isobaric coefficient of expansion for CCCC(C)O (stereo unspecified) [pentan-2-ol] .
Output: 0.000971 1/K

Input: Please report the recorded isobaric coefficient of expansion for CCC(O)CC [3-pentanol] .
Output: 0.000989 1/K

Input: Please report the recorded isobaric coefficient of expansion for CCCO [propan-1-ol] .
Output: 0.000947 1/K

---
Input: Please report the recorded isobaric coefficient of expansion for CCCCCCCCCO [nonan-1-ol] .
Output: 0.000785 1/K

Input: Please report the recorded isobaric coefficient of expansion for CCCCCN [1-pentanamine] .
Output: 0.00106 1/K

Input: Please report the recorded isobaric coefficient of expansion for CCCCCCO [hexan-1-ol] .
Output: 0.000833 1/K

Input: Please report the recorded isobaric coefficient of expansion for CCO [ethanol] .
Output: 0.00102 1/K

Input: Please report the recorded isobaric coefficient of expansion for CCCCCO [pentan-1-ol] .
Output: 0.000853 1/K

Input: Please report the recorded isobaric coefficient of expansion for CCCCCCCCCCO [decan-1-ol] .
Output: 0.000775 1/K

Input: Please report the recorded isobaric coefficient of expansion for CCCCCCCCO [octan-1-ol] .
Output: 0.000793 1/K

Input: Please report the recorded isobaric coefficient of expansion for CCCCCCCO [heptan-1-ol] .
Output: 0.000814 1/K

====

Assay: isobaric coefficient of expansion
Details: 298.15 K; 10000 kPa; Liquid; DSC with Pressure Shift
Property: isobaric coefficient of expansion

Past entries and their recorded results:
Input: Please report the recorded isobaric coefficient of expansion for CCC(O)CC [3-pentanol] .
Output: 0.000952 1/K

Input: Please report the recorded isobaric coefficient of expansion for CCCCCO [pentan-1-ol] .
Output: 0.000864 1/K

Input: Please report the recorded isobaric coefficient of expansion for CCCCCCO [hexan-1-ol] .
Output: 0.000832 1/K

Input: Please report the recorded isobaric coefficient of expansion for CCCCCCCO [heptan-1-ol] .
Output: 0.000811 1/K

Input: Please report the recorded isobaric coefficient of expansion for CCCCCCCCO [octan-1-ol] .
Output: 0.000799 1/K

Input: Please report the recorded isobaric coefficient of expansion for CCCCCCCCCO [nonan-1-ol] .
Output: 0.000798 1/K

Input: Please report the recorded isobaric coefficient of expansion for CCCC(C)O (stereo unspecified) [pentan-2-ol] .
Output: 0.000935 1/K

Input: Please report the recorded isobaric coefficient of expansion for CCCO [propan-1-ol] .
Output: 0.000943 1/K

Input: Please report the recorded isobaric coefficient of expansion for CCCCCCCCCCO [decan-1-ol] .
Output: 0.000792 1/K

Input: Please report the recorded isobaric coefficient of expansion for CCO [ethanol] .
Output: 0.00103 1/K

---
Input: Please report the recorded isobaric coefficient of expansion for CCCCCN [1-pentanamine] .
Output: 0.00109 1/K
